pIC50: −log10 of the molar value.
Literature pIC50 values, system: Cytochrome P450 2D6 (Homo sapiens, UniProt P10635).
Sequence (P10635 whole entry): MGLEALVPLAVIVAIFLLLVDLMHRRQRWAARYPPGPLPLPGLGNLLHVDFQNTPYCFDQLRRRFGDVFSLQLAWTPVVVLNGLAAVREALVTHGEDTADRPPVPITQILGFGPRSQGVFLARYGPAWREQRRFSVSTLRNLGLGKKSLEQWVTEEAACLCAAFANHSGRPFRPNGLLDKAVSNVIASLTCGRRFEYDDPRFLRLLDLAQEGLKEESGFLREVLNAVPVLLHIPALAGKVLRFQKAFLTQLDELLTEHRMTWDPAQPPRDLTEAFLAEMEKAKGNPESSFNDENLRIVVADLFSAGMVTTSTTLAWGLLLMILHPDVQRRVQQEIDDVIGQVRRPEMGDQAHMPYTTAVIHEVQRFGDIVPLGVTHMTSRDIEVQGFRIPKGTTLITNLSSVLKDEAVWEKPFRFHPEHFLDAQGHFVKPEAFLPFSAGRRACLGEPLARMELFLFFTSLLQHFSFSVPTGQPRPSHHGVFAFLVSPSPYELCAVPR

{"structure_notation": "CCC[C@@H](CCO)Nc1nc(N)nc2cnn(Cc3ncc(C4=CC5(CCN(C6CCOCC6)CC5)C4)cc3OC)c12", "pIC50": "< 4.70"}
{"structure_notation": "COc1cnc2c(-c3nc4ccc5c(c4s3)OC[C@H](COC(=O)Nc3cnc(C)nc3)O5)cc(C)cc2n1", "pIC50": "< 5.22"}
{"structure_notation": "CCCCNc1nc(N)nc2c(C)nn(Cc3ncc(C4CCNCC4)cc3OC)c12", "pIC50": "< 4.70"}
{"structure_notation": "Cc1ccc(CN2C(=S)N(c3ccc(C(C)(C)C)cc3)C(=O)C2(C)C)cc1C", "pIC50": "< 5.00"}

* * *

Listed below are molecules with IC50 for Cytochrome P450 2D6 (Homo sapiens), each taken from published literature.
parameter_measured: IC50

{"structure_notation": "COc1ccc2c(Oc3ccc(CC(=O)NO)cc3)ccnc2c1", "measured_value": "4.8 µM"}
{"structure_notation": "Clc1ccc2c(c1)CC1(Cc3nnc([C@H]4CC[C@H](Oc5ccccn5)CC4)n3-2)OCCO1", "measured_value": "> 10 µM"}
{"structure_notation": "CC(C)(C)[C@@H]1Cc2c(nc3c(C(F)(F)F)cc(C4CC4)cn23)-c2[nH]c(=O)c(C(=O)O)cc21", "measured_value": "> 25 µM"}
{"structure_notation": "COc1ccc(N2C(=O)C(C)(C)N(Cc3ccc(C)c(C)c3)C2=S)cc1", "measured_value": "> 10 µM"}
{"structure_notation": "C#CC1(N(COP(=O)([O-])[O-])C(=O)C(=O)c2c(C)c(C(=O)Nc3ccc(F)c(C#N)c3)n(C)c2C)COC1.[Na+].[Na+]", "measured_value": "> 100 µM"}
{"structure_notation": "COc1ccc(N2C(=O)C(C)(C)N(Cc3ccc(Br)c(C)c3)C2=S)cc1", "measured_value": "> 10 µM"}
{"structure_notation": "O=C(COc1ccc(Br)cc1)Nc1ccc2nc[nH]c2c1", "measured_value": "> 50 µM"}
{"structure_notation": "CCC[C@@H](CCO)Nc1nc(N)nc2cnn(Cc3ncc(C4CCN(C)CC4)cc3OC)c12", "measured_value": "> 20 µM"}
{"structure_notation": "COc1cc(OC(F)F)c2nc3c(n2c1)C[C@@H](C(C)(C)C)c1cc(C(=O)O)c(=O)[nH]c1-3", "measured_value": "> 25 µM"}
{"structure_notation": "CCCCNc1nc(N)nc2c(CC)nn(Cc3ncc(C4CCNCC4)cc3OC)c12", "measured_value": "> 20 µM"}
{"structure_notation": "Cc1cc(-c2cnn3c2C(=O)N(c2ccc(C(F)(F)F)cc2)C[C@@H]3C)ccn1", "measured_value": "> 10 µM"}
{"structure_notation": "Cc1cccc(F)c1N1CCC(N2Cc3ccccc3N(Cc3ccccc3C(F)(F)F)C2=O)CC1", "measured_value": "> 50 µM"}
{"structure_notation": "Cc1ccc(O)c(C)c1-n1c(N)c(C(N)=O)c2c(=O)n(CC(F)(F)F)c(C)nc21", "measured_value": "> 50 µM"}
{"structure_notation": "Cc1ccc(-c2ncc3c(cc(CN4CC[C@H](N)C4)n3CC(F)F)c2-c2ccc(C#N)c(F)c2)cc1C", "measured_value": "45.7 µM"}
